meta.source: the supplement of paper PMC8728848

# EXPERIMENTAL_SYSTEM: Gal(b1-3)GalNAc(b1-3)Gal(b1-4)GlcNAc
# EXPERIMENTAL_PROTOCOL: glycan array binding signal (z-score within array); higher = stronger binding
# PROTOCOL_CONDITIONS: glycan notation: IUPAC condensed, linker removed
This excerpt belongs to a sample that is enriched for the strongest signals.
MEASUREMENT_KIND: glycan array binding signal (z-score)

1) ASA (Allium sativum) (protein) KAHEKERMGRNTPSAKLMSIAAVAAILTILASTCMARNLLTNGEGLYAGQSLNVEPYHFIMQEDCNLVLYDHSTAVWATNTDIPGKKECRAVLQSDGNFVVYDADGRPLWASHSVRGNGNYVLVLQEDGNVVIYGSDIWSTGTYVKAARGPVVVAMNGTVDGGSLIRPVIVNKNHVPVIRKVGTLSRNILRNDEGLYAGQSLDVEPYHFIMHEDCNLVLYDHSTAVWASNTDIPGKKGCKAVLQSDGNFVVYDAEGRSLWASHSVRGNGNYVLVLQEDGNVVIYGSDIWSTDTYRKSARGPVIRKVGTLAGAA	-0.231
